So I've got a bunch of molecules here, and I need their pEC50 values.
measuredOn: F508delCFTR (Homo sapiens, UniProt P13569, DEL508-508)
Construct: expressed in transfected cells; host or cells: CFBE41o- human lung-derived epithelial cells (CFBE41o-F508delCFTR-HRP), doxycycline-inducible
Sequence (P13569 with tags, fused parts or gaps DEL508-508): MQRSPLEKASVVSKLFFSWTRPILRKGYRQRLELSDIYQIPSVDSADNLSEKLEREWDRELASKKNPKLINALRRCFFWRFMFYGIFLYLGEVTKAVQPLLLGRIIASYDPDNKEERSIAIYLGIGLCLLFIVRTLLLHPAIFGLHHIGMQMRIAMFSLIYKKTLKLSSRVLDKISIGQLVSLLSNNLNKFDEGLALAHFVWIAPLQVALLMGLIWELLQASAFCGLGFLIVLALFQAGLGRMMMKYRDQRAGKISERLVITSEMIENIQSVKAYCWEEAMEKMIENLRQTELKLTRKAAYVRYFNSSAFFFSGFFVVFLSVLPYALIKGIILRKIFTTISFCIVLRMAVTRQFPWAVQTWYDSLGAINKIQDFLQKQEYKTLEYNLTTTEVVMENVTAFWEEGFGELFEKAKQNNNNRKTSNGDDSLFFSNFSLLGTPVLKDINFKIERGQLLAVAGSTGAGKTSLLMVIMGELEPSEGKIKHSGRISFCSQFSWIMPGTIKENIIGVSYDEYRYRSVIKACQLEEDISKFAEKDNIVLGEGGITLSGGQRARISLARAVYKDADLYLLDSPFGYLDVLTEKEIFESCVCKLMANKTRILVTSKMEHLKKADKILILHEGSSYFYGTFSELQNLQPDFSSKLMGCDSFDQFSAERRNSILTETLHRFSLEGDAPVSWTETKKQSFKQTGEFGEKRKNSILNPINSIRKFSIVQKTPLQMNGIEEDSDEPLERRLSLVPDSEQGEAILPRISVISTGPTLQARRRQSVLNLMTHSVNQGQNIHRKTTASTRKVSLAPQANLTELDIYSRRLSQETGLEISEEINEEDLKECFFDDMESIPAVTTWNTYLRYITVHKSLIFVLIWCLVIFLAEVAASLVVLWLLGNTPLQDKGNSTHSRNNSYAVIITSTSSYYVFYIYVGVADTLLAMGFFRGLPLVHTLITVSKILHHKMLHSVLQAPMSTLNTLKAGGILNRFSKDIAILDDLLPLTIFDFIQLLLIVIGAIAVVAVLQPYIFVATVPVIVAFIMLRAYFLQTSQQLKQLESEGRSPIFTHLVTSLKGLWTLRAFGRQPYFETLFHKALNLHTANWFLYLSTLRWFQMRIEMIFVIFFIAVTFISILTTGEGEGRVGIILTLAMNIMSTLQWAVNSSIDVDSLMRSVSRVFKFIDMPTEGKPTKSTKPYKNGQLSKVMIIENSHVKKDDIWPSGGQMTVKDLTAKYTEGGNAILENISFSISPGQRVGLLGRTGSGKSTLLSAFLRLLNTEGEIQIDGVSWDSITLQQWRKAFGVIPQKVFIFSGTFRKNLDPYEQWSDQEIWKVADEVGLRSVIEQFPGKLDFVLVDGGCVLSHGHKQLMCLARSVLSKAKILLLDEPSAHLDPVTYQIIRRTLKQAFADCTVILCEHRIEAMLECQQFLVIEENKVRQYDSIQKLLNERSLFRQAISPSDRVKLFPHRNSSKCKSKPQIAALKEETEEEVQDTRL
protocolText: Cell Surface Expression-Horse Radish Peroxidase (CSE-HRP) assay, test compound without co-corrector
Assay type: cell-based
condition: test compound without co-corrector
pEC50: −log10 of the molar value.

QUERY: Report pEC50 for COc1cc2c(c(OC)c1)C(C(=O)NS(=O)(=O)c1cccc3ccccc13)CCC2 (centres unmarked) please.
RESULT: 5.00 to 5.52

QUERY: Query CCC1(C(=O)NS(=O)(=O)c2ccccc2)CCc2c(Cl)cccc21 (centres unmarked) next
RESULT: > 5.52

QUERY: Query COc1cccc2c1CCC2C(=O)NS(=O)(=O)c1cc(F)ccc1Cl (centres unmarked) next
RESULT: ≤ 5.00

QUERY: Query COc1cccc2c1CCC2C(=O)NS(=O)(=O)c1ccc(Cl)cc1[N+](=O)[O-] (centres unmarked) next
RESULT: ≤ 5.00

QUERY: Query COc1ccccc1S(=O)(=O)NC(=O)C1CCc2c(OC)cccc21 (centres unmarked) next
RESULT: ≤ 5.00

====

measuredOn: F508delCFTR (Homo sapiens, UniProt P13569, DEL508-508)
Construct: expressed in transfected cells; host or cells: CFBE41o- human lung-derived epithelial cells (CFBE41o-F508delCFTR-HRP), doxycycline-inducible
protocolText: Cell Surface Expression-Horse Radish Peroxidase (CSE-HRP) assay, test compound without co-corrector;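 on Emax: percent of on-plate 2 µM positive control corrector response over DMSO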
Assay type: cell-based
condition: maximum at any tested concentration, normalized to positive control, without co-corrector
Protocol: Cell Surface Expression-Horse Radish Peroxidase (CSE-HRP) Assay […] The % activity measured at each of the 8 test concentrations of the test compound added either without or with a co-corrector (2 μM of 3-[(2R,4R)-4-({[1-(2,2-difluoro-1,3-benzodioxol-5-yl)cyclopropyl]carbonyl}amino)-7-methoxy-3,4-dihydro-2H-chromen-2-yl]benzoic acid) was normalized to the on-plate positive control using the following formulae: […]
So I've got a bunch of compounds here, and I need their Emax values.

QUERY: Report Emax for O=C(NS(=O)(=O)c1cccc2ccccc12)C1CCc2ccccc21 (centres unmarked) please.
RESULT: < 50%

QUERY: Query Cc1ccc2c(c1)CCC2(C)C(=O)NS(=O)(=O)c1ccccc1C (centres unmarked) next
RESULT: 50 to 150%

QUERY: Query COc1ccc(-c2cccc3c2OC(F)(F)O3)c2c1CCCC2C(=O)NS(=O)(=O)c1cccc2ccccc12 (centres unmarked) next
RESULT: ≥ 150%

QUERY: Query COc1ccc(C2CCC2)c2c1C(C(=O)NS(=O)(=O)c1cccc3cnn(C)c13)CC2 (centres unmarked) next
RESULT: ≥ 150%

QUERY: Query "COc1ccc(Br)c2c1[C@H](C(=O)NS(=O)(=O)c1cccc3ncccc13)CC2" next
RESULT: ≥ 150%

====

measuredOn: F508delCFTR (Homo sapiens, UniProt P13569, DEL508-508)
Construct: expressed in transfected cells; host or cells: CFBE41o- human lung-derived epithelial cells (CFBE41o-F508delCFTR-HRP), doxycycline-inducible
protocolText: Cell Surface Expression-Horse Radish Peroxidase (CSE-HRP) assay, test compound with co-corrector;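 further: percent of 2 µM positive control corrector over DMSO; co-corrector is that same compound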
Type: cell-based
condition: maximum at any tested concentration, normalized to positive control, with 2 μM co-corrector
readout: Maximum % activity (with co-corrector)

Solved cases below.
{"columns": ["compound", "measuredOn", "Maximum % activity (with co-corrector)"],
 "data": [
  ["CCC1(C(=O)NS(=O)(=O)c2cccc3cnccc23)CCc2c(Cl)cccc21 (stereo not drawn)", "F508delCFTR (Homo sapiens, UniProt P13569, DEL508-508)", "+++ (≥350)"],
  ["COc1cccc2c1CCC2C(=O)NS(=O)(=O)c1ccc2cc(O)ccc2c1 (stereo not drawn)", "F508delCFTR (Homo sapiens, UniProt P13569, DEL508-508)", "+ (<150)"],
  ["C=C(C)c1ccc(OC)c2c1CCC2C(=O)NS(=O)(=O)c1cccc2ccccc12 (stereo not drawn)", "F508delCFTR (Homo sapiens, UniProt P13569, DEL508-508)", "+++ (≥350)"],
  ["COc1cccc2c1CCC2C(=O)NS(=O)(=O)c1cccc(F)c1C#N (stereo not drawn)", "F508delCFTR (Homo sapiens, UniProt P13569, DEL508-508)", "+ (<150)"]
]}

QUERY: Report Maximum % activity (with co-corrector) for CCCCCC(=O)c1ccc(S(=O)(=O)NC(=O)C2CCc3c(OC)cccc32)cc1 (stereo not drawn) please.
RESULT: + (<150)

QUERY: Query COc1ccc(Br)c2c1C(C(=O)NS(=O)(=O)c1cccc3ccccc13)C2 (stereo not drawn) next
RESULT: +++ (≥350)

QUERY: Query COc1ccc(C2=CCOCC2)c2c1C(C(=O)NS(=O)(=O)c1cccc3ccccc13)CCC2 (stereo not drawn) next
RESULT: +++ (≥350)

QUERY: Query "COc1ccc2c(c1)CC[C@@]2(C)C(=O)NS(=O)(=O)c1cccc2ccccc12" next
RESULT: +++ (≥350)
